Kindly supply the reported IC50 values for the records listed here.
testProtocol: Cytotoxicity against human SMMC-7404 cells assessed as reduction in optical density by MTT assay relative to control
Format: functional, cell-based
# output: bare number, implied unit µM

Q. Bench note: what IC50 did C[C@]12CC/C(=N\NC(N)=S)C=C1/C(=N\NC(N)=S)C[C@@H]1[C@@H]2CC[C@]2(C)NC(=O)CC[C@@H]12 show?
A. 80.5

Q. Bench note: what IC50 did C[C@]12CC/C(=N/O)CC1/C(=N\O)C[C@@H]1[C@@H]2CC[C@]2(C)NC(=O)CC[C@@H]12 (some centres undefined) show?
A. 184

Q. Bench note: what IC50 did C[C@]12CCC(=O)CC1C(=O)C[C@@H]1[C@@H]2CC[C@]2(C)NC(=O)CC[C@@H]12 (some centres undefined) show?
A. 60.8

Q. Bench note: what IC50 did C[C@]12CCC(O)CC1C(O)C[C@@H]1[C@@H]2CC[C@]2(C)NC(=O)CC[C@@H]12 (some centres undefined) show?
A. 124
